From: PubChem BioAssay (NCATS)

System: CP252
run_description: qHTS profiling for inhibitors of Plasmodium falciparum proliferation (AID 504749); note: nearly all actives have a fitted effect of over 60% in size
conditions_used: P. falciparum in erythrocytes, SYBR Green DNA, 72 h; series mostly up to 28.7 µM
Results filed as inconclusive are left out. Activity calls are given as the source filed them. Calls come from the whole dose curve; as a rule, active = well fitted inhibition curve with a large enough effect; inconclusive = small, poorly fitted or top-dose-only effect; inactive = flat fitted curve, though single readings scatter.
Outcome (select one): active, inactive

Outcome logged for "Cc1cccc(Nc2ccncc2S(=O)(=O)NC(=O)NC(C)C)c1" in this assay:
inactive

And for "NC(=O)c1cccnc1" ?
inactive

Queued: "Cc1nnc(NS(=O)(=O)c2ccc(N)cc2)s1"
inactive

And for CCOCC(O)COc1ccc(NC(=O)CC[S+](C)C)cc1 (stereo not drawn) ?
inactive

# repeat for "CC(C)OC(=O)C(C(=O)OC(C)C)=C1SC=CS1"
inactive

Next entry: "CCCN[C@H]1CCc2nc(N)sc2C1"
inactive

Also "S=P(N1CC1)(N1CC1)N1CC1" ?
inactive

Repeat with "COC(=O)Nc1nc2ccc(Sc3ccccc3)cc2[nH]1"
inactive

Query "Nc1[nH]c(=O)ncc1F" next
inactive

Request: "N=C(N)c1ccc(OCCCCCOc2ccc(C(=N)N)cc2)cc1"
active

What do you get for "COc1cc2c(Nc3ccc(Br)cc3F)ncnc2cc1OCC1CCN(C)CC1" ?
active

Please answer likewise for "O=P(O)(O)C(O)(Cc1cccnc1)P(=O)(O)O"
inactive

Likewise for "CN1CCN(c2c(F)cc3c(=O)c(C(=O)O)cn(CCF)c3c2F)CC1" ?
inactive

---

measured_target: Glutathione peroxidase 1 (Homo sapiens)
run_description: Primary qHTS Assay for Inhibitors of Recombinant Selenoprotein Glutathione Peroxidase 1 (GPX1) (AID 1845191); note: nearly all actives have a fitted effect of over 65% in size
conditions_used: recombinant GPX1, GR-coupled NADPH fluorescence, 15 min; series mostly up to 48.8 µM
Records with an inconclusive call do not appear. Activity calls are given as the source filed them. The call rests on the fitted dose curve; in most records, active means well fitted inhibition curve with a large enough effect; inconclusive means small, poorly fitted or top-dose-only effect; inactive means flat fitted curve, though single readings scatter.
assay_readout: outcome

Guide cases for outcome, answers given:
compound	reading
CC(C)NCC(O)c1ccc(NS(C)(=O)=O)cc1 (stereo unspecified)	inactive
COc1cc2ncnc(Nc3cccc(Cl)c3)c2cc1OC	inactive
COc1ncnc(NS(=O)(=O)c2ccc(N)cc2)c1OC	inactive
O=C(O)c1cc(=O)[nH]c(=O)[nH]1	inactive
CCCCS(=N)(=O)CCC(N)C(=O)O (stereo unspecified)	inactive

Shifting focus to the compound that follows.
What value of measured outcome is listed for "CC[C@H](C)C(=O)O[C@H]1C[C@@H](C)C=C2C=C[C@H](C)[C@H](CC[C@@H]3C[C@@H](O)CC(=O)O3)[C@H]21" ?
inactive

---

run_description: Quantitative High-Throughput drug screen in 47 multiple myeloma cell lines against the NCATS MIPE library collection: AMO1_DSMZ cell viability assay (AID 1918927; note: nearly all actives have a fitted effect of over 30% in size)
conditions_used: AMO1 myeloma cells viability, CellTiter-Glo ATP luminescence, 48 h; series mostly up to 45.8 µM
Results filed as inconclusive are left out. Calls of active or inactive are those of the source. The call rests on the fitted dose curve; in most records, active means well fitted cell-killing curve with a large enough effect; inconclusive means small, poorly fitted or top-dose-only effect, or effect the other way; inactive means no such curve, though single readings can be large or run the other way.
Your answer must be one of the following: T for active, F for inactive

Assay result, entry "CC(C)(C#N)c1cc(Cn2cncn2)cc(C(C)(C)C#N)c1" — outcome?
F

Continue with "O=P(O)(O)C(O)(Cc1cccnc1)P(=O)(O)O"
F

What do you get for "COc1ncnc(NS(=O)(=O)c2ccc(N)cc2)c1OC" ?
F

Request: "CC(C)OC(=O)OCOP(=O)(CO[C@H](C)Cn1cnc2c(N)ncnc21)OCOC(=O)OC(C)C"
T
